assay: protein stability index of a GFP-peptide fusion (yeast GPS) (PSI 1-4); higher = more stable; sorted into four equal gates, so the index is relative within each strain; conditions: doa10∆
Returns condition met if the recorded protein stability index is greater than or equal to 2, and condition not met otherwise.

INPUT: Determine whether this sequence has protein stability index no lower than 2: RETDPLVYNMTSFEQGE [RPT4]
OUTPUT: condition met

INPUT: Determine whether this sequence has protein stability index no lower than 2: SEHDKKRLSAALSKFLT [YML103C/NUP188]
OUTPUT: condition met

INPUT: Determine whether this sequence has protein stability index no lower than 2: VQMDKIRKIVRKDENQF [AAR2]
OUTPUT: condition met

INPUT: Determine whether this sequence has protein stability index no lower than 2: FLPRKRAASIRARVKAF [RPL3]
OUTPUT: condition not met

INPUT: Determine whether this sequence has protein stability index no lower than 2: KVDWAREHFEKTVAVDS [RPL3]
OUTPUT: condition not met

INPUT: Determine whether this sequence has protein stability index no lower than 2: TCDEIQNFENDFSLRYI [REC8]
OUTPUT: condition met

INPUT: Determine whether this sequence has protein stability index no lower than 2: NELQEERLKVPILVTLV [POP6]
OUTPUT: condition not met

INPUT: Determine whether this sequence has protein stability index no lower than 2: IRKFFGLSKEDDVRDFV [RPS6A]
OUTPUT: condition met

INPUT: Determine whether this sequence has protein stability index no lower than 2: TTDKLRSMVRKWQTLIE [RPS1A]
OUTPUT: condition met

INPUT: Determine whether this sequence has protein stability index no lower than 2: HSKFRSSSGNTWSLILN [YML031W/NDC1]
OUTPUT: condition met

INPUT: Determine whether this sequence has protein stability index no lower than 2: TPVVLATPIPEEVQQAQ [RPS5]
OUTPUT: condition met

INPUT: Determine whether this sequence has protein stability index no lower than 2: VEDVSQNAADLQQICRV [RPL9A]
OUTPUT: condition met

INPUT: Determine whether this sequence has protein stability index no lower than 2: MNECIADQDMEDEDMVD [ESC2]
OUTPUT: condition met

INPUT: Determine whether this sequence has protein stability index no lower than 2: YMEQGNNKIITLVKGPK [SKI6]
OUTPUT: condition met

INPUT: Determine whether this sequence has protein stability index no lower than 2: NTFGSSSLFNNSTNSNT [YJL041W/NSP1]
OUTPUT: condition met

INPUT: Determine whether this sequence has protein stability index no lower than 2: REGLIDTAVKTAETGYI [RPO21]
OUTPUT: condition not met

INPUT: Determine whether this sequence has protein stability index no lower than 2: KALDRHEFFIANHDDQD [SRP68]
OUTPUT: condition met

INPUT: Determine whether this sequence has protein stability index no lower than 2: FPSSETTSLNPIQSKVF [BRR2]
OUTPUT: condition met

INPUT: Determine whether this sequence has protein stability index no lower than 2: LDVDPAKRIRVSHHATT [RPB2]
OUTPUT: condition met

INPUT: Determine whether this sequence has protein stability index no lower than 2: KKVGITGKYGVRYGSSL [RPL43A]
OUTPUT: condition met

INPUT: Determine whether this sequence has protein stability index no lower than 2: KYIALQVIVDIFSVHGN [YCG1]
OUTPUT: condition not met

INPUT: Determine whether this sequence has protein stability index no lower than 2: LPNEMSQNDGFVIIRGS [RPO31]
OUTPUT: condition met

INPUT: Determine whether this sequence has protein stability index no lower than 2: PQIRQEIEQLDQYIQKQ [YGL172W/NUP49]
OUTPUT: condition met

INPUT: Determine whether this sequence has protein stability index no lower than 2: HIKEASEEVDDLSMVPK [SNF2]
OUTPUT: condition met

INPUT: Determine whether this sequence has protein stability index no lower than 2: KISEGSAKPTFSFSKSE [YOR098C/NUP1]
OUTPUT: condition not met

INPUT: Determine whether this sequence has protein stability index no lower than 2: TKLGFTFTIKEFVSYYY [SNU114]
OUTPUT: condition not met

INPUT: Determine whether this sequence has protein stability index no lower than 2: VFLSNLVETCLNDLVES [BRR2]
OUTPUT: condition not met

INPUT: Determine whether this sequence has protein stability index no lower than 2: INKEIFHHWLVEFINKM [SRB8]
OUTPUT: condition not met
